Measurement Target: T1, recombinant human EphA5 (rhEphA5) antigen (human, UniProt P54756 25-573)
T1 construct: also called human EphA5 (R and D systems, Cat. No. 3036-A5); recombinant EphA5
T1 sequence (P54756 25-573 limits assumed): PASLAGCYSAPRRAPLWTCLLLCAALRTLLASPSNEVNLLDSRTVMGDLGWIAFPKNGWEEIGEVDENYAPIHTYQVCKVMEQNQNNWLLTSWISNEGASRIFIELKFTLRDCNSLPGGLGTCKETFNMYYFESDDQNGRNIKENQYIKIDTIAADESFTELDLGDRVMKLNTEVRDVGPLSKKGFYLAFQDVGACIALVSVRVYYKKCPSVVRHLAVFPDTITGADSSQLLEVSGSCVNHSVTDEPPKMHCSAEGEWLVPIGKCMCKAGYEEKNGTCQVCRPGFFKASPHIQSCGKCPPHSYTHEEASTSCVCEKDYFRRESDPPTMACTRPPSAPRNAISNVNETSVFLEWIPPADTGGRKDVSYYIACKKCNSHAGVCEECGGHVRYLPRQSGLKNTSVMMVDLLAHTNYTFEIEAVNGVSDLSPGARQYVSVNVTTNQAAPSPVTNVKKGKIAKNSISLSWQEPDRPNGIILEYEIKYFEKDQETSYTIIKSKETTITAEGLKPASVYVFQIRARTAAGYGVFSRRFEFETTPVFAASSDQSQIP
Procedure Text: SPR single-cycle kinetics (Biacore T200), IgG from HEK supernatant captured on anti-human IgG CM5 chip, rhEphA5 as analyte, 1:1 fit
Would you mind telling me the reported koff of each entry?
Answers are plain numbers, in s⁻¹.

The following binders each have a reported value; give each one's koff.
1. VH4/VK5 humanized 11C12 antibody (antibody, human IgG1, kappa, V domains shown, Human IgG1/kappa; tested as HEK293 EBNA supernatant; also called H4K5) VH: EVQLVESGGGLVQPGGSLKLSCAASGFTFSTFGIHWVRQAPGKGLEWVAYISGASTTIYYADTVKGRFTISRDNSKNTLYLQMNSLRAEDTAVYYCARYGTSFPYGLDYWGQGTLVTVSS VL: DIVMTQSPDSLAVSLGERATINCKSSQSVDYDGDSYMNWYQQKPGKAPKLLIYGASNLESGIPDRFSGSGSGTDFTLTISRLEPEDAAVYYCQQSNEDPFTFGQGTKLEIKR
2. VH4/VK1 humanized 11C12 antibody (antibody, human IgG1, kappa, V domains shown, Human IgG1/kappa; tested as HEK293 EBNA supernatant; also called H4K1) VH: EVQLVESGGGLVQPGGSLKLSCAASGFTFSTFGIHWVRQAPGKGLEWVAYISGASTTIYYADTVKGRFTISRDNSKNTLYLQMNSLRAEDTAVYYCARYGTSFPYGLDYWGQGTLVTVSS VL: DIVMTQSPGSLAVSLGERATINCKASQSVDYDGDSYMNWYQQKPGKAPKLLIYGASNLESGIPDRFSGSGSGTDFTLTISRLEEEDAASYYCQQSNEDPFTFGQGTKLEIKR
3. VH6/VK2 humanized 11C12 antibody (antibody, human IgG1, kappa, V domains shown, Human IgG1/kappa; tested as HEK293 EBNA supernatant; also called H6K2) VH: EVQLVESGGGLVQPGGSLKLSCAASGFTFSTFGIHWVRQAPGKGLEWVASISGASTTIYYADSVKGRFTISRDNSKNTLYLQMNSLRAEDTAVYYCARYGTSFPYGLDYWGQGTLVTVSS VL: DIVMTQSPDSLAVSLGERATINCKASQSVDYDGDSYMNWYQQKPGKAPKLLIYGASNLESGIPDRFSGSGSGTDFTLTISRLEPEDAASYYCQQSNEDPFTFGQGTKLEIKR

1: 0.00137; 2: 0.00129; 3: 0.165
